Catalogue of binders with associated maximal absorbance at 450 nm
# target.under.test: tetanus neurotoxin (TeNT), authentic tetanus holotoxin (Clostridium tetani, UniProt P04958 2-1315)
# Sequence (P04958 2-457 limits assumed, chain 1 of 2): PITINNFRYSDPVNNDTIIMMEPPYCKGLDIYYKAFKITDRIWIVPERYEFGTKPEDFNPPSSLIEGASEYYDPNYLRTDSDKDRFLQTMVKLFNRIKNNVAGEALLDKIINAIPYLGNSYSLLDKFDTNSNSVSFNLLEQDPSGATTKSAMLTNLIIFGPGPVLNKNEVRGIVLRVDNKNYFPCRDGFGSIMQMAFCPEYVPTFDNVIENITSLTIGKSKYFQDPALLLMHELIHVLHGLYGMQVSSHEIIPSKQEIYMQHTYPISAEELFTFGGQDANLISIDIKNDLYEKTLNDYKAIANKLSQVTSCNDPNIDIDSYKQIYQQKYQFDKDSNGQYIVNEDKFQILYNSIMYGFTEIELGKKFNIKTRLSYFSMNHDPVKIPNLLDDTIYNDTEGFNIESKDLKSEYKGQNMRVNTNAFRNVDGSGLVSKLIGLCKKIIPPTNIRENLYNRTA
# Sequence (P04958 458-1315 limits assumed, chain 2 of 2): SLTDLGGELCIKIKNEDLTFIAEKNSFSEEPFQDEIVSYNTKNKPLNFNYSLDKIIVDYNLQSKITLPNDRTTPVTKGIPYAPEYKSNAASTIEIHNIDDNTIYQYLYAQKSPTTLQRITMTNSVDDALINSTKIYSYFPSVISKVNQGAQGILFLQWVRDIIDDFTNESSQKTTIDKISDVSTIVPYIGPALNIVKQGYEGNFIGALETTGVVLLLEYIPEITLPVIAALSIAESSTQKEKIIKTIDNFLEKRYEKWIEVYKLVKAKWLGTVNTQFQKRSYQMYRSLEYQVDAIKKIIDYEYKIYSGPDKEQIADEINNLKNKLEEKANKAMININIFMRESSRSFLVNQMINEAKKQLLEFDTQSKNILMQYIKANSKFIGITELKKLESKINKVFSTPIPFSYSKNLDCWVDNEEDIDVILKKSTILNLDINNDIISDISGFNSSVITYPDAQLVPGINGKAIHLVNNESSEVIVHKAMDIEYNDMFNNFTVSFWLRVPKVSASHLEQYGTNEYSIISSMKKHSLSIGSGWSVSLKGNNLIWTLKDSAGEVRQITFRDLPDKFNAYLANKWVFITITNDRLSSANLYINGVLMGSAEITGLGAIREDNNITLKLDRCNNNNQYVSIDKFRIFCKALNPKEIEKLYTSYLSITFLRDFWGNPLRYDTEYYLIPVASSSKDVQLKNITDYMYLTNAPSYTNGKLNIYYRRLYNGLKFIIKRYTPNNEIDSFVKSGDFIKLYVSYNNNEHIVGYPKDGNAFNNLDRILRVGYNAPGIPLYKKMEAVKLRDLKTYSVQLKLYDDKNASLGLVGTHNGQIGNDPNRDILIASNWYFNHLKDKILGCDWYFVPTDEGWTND
# protocol.text: ELISA, TeNT captured with cAb-TT2, biotinylated binder
Respond numerically, and do not add a unit to the figure.

SVT03L (VHH) VHH: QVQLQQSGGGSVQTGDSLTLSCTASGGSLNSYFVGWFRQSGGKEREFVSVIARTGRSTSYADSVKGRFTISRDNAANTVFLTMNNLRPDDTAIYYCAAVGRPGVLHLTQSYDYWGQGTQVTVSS :: 0.493

Field: next binder
If you can, please state the reported maximal absorbance at 450 nm value of SVT05L (VHH) VHH: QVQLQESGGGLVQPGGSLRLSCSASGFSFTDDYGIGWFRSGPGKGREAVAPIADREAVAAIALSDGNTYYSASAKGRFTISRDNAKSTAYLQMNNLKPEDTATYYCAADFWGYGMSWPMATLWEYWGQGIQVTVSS .
0.622

// provenance: patent US20240376185A1
